IC50 reference
# tgt: KRAS G13D (Homo sapiens (Human), UniProt P01116+P62937, G13D)
# Sequence (P01116-2 other isoform, or with tags, fused parts or gaps G13D): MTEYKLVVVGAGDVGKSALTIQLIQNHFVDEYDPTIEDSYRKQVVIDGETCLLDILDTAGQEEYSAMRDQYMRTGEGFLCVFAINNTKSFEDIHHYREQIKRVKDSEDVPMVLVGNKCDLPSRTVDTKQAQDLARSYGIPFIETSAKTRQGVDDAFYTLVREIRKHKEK
# Sequence (P62937 whole entry): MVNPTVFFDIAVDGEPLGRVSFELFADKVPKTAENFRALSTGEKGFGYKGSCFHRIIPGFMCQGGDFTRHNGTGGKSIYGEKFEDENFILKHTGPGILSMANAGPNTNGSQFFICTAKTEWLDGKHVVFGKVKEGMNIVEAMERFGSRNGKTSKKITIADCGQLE
# assay name: Ras-Raf (BRAF RBD) disruption / FRET / MOA assay, KRAS G13D
# Format: biochemical
# applied conditions: read-out: IC50* KRAS G13D FRET data

{"columns": ["compound", "tgt", "IC50"],
 "data": [
  ["C=CC(=O)N1CC[C@H](C(=O)N(CC)[C@H](C(=O)N[C@H]2Cc3cccc(c3)-c3ccc4c(c3)c(c(-c3cccnc3[C@H](C)OC)n4CC)CC(C)(C)COC(=O)[C@@H]3CCCN(N3)C2=O)C(C)C)C1 (atropisomer, axis not shown) [Example A399]", "KRAS G13D (Homo sapiens (Human), UniProt P01116+P62937, G13D)", "1 to 10 µM"],
  ["C=CS(=O)(=O)N1CCC(C(=O)N(C)[C@H](C(=O)N[C@H]2Cc3cccc(c3)-c3ccc4c(c3)c(c(-c3cncnc3)n4CC)CC(C)(C)COC(=O)[C@@H]3CCCN(N3)C2=O)C(C)C)C1 (single isomer, unassigned) [Example A171]", "KRAS G13D (Homo sapiens (Human), UniProt P01116+P62937, G13D)", "> 10 µM"]
]}

----------
# tgt: KRAS G12D (Homo sapiens (Human), UniProt P01116+P62937, G12D)
# Sequence (P01116-2 other isoform, or with tags, fused parts or gaps G12D): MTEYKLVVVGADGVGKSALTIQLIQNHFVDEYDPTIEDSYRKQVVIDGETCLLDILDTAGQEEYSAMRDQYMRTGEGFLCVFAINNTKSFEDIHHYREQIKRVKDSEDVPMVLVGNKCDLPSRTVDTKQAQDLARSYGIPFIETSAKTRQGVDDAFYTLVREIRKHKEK
# Sequence (P62937 whole entry): as the sequence (P62937 whole entry) above
# assay name: Ras-Raf (BRAF RBD) disruption / FRET / MOA assay, KRAS G12D
# Assay type: biochemical
# applied conditions: Ras-Raf disruption/FRET/MOA assay; class symbols; read-out: KRAS G12D FRET data IC50
pIC50: −log10 of the molar value.

{"columns": ["compound", "pIC50"],
 "data": [
  ["C=CC(=O)N1CC[C@H](C(=O)Nc2ccccc2C(=O)N[C@H]2Cc3cc(O)cc(c3)-c3ccc4c(c3)c(c(-c3cnccc3COC)n4CC)CC(C)(C)COC(=O)[C@@H]3CCCN(N3)C2=O)C1", "< 5.00"],
  ["CCn1c(-c2cccnc2[C@H](C)OC)c2c3cc(ccc31)-c1cccc(c1)C[C@H](NC(=O)[C@H](C(C)C)N(C)C(=O)[C@H]1CCN(C(=O)/C=C/C(F)F)C1)C(=O)N1CCC[C@H](N1)C(=O)OCC(C)(C)C2 (atropisomer, axis not shown)", "< 5.00"]
]}

----------
# tgt: KRAS G13D (Homo sapiens (Human), UniProt P01116+P62937, G13D)
# assay name: Ras-Raf (BRAF RBD) disruption / FRET / MOA assay, KRAS G13D
# Format: biochemical
# applied conditions: read-out: IC50* KRAS G13D FRET data
pIC50: −log10 of the molar value.
pIC50 reference

{"columns": ["compound", "tgt", "pIC50"],
 "data": [
  ["CCn1c(-c2cccnc2[C@H](C)OC)c2c3cc(ccc31)-c1cc(O)cc(c1)C[C@H](NC(=O)[C@H](C(C)C)N1CC[C@@]3(CCN(C(=O)/C=C/CN(C)C)C3)C1=O)C(=O)N1CCC[C@H](N1)C(=O)OCC(C)(C)C2 (atropisomer, axis not shown)", "KRAS G13D (Homo sapiens (Human), UniProt P01116+P62937, G13D)", "6.00 to 7.00"],
  ["CCn1c(-c2cccnc2[C@H](C)OC)c2c3cc(ccc31)-c1cc(O)cc(c1)C[C@H](NC(=O)[C@H](C(C)C)N(C)C(=O)[C@H]1CCN(C(=O)C#CC3(N(C)C)COC3)C1)C(=O)N1CCC[C@H](N1)C(=O)OCC(C)(C)C2", "KRAS G13D (Homo sapiens (Human), UniProt P01116+P62937, G13D)", "6.00 to 7.00"],
  ["CCn1c(-c2cncnc2)c2c3cc(ccc31)-c1csc(n1)C[C@H](NC(=O)[C@H](C(C)C)N(C)C(=O)[C@H]1CCN(C(=O)C#CCN3CCOCC3)C1)C(=O)N1CCC[C@H](N1)C(=O)OCC(C)(C)C2", "KRAS G13D (Homo sapiens (Human), UniProt P01116+P62937, G13D)", "< 5.00"],
  ["C=CC(=O)N1CC(OCC(C(=O)N[C@H]2Cc3cccc(c3)-c3ccc4c(c3)c(c(-c3cccnc3[C@H](C)OC)n4CC)CC(C)(C)COC(=O)[C@@H]3CCCN(N3)C2=O)C(C)C)C1 (stereo partly shown) [Example A483]", "KRAS G13D (Homo sapiens (Human), UniProt P01116+P62937, G13D)", "< 5.00"]
]}

----------
# tgt: K-Ras G13C (Homo sapiens (Human), UniProt P01116+P62937, G13C)
# Sequence (P01116-2 other isoform, or with tags, fused parts or gaps G13C): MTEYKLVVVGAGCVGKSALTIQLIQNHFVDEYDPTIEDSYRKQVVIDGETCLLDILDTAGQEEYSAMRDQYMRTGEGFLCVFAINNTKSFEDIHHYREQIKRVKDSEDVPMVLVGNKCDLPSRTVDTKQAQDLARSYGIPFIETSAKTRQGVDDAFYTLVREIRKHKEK
# Sequence (P62937 whole entry): as the sequence (P62937 whole entry) above
# assay name: Ras-Raf (BRAF RBD) disruption / FRET / MOA assay, KRAS G13C
# Assay type: biochemical
# applied conditions: KRAS G13C; Ras-Raf disruption/FRET/MOA assay; read-out: IC50* KRAS G13C FRET data
pIC50: −log10 of the molar value.
pIC50 reference
measure: pIC50

{"columns": ["compound", "tgt", "reported measurement"],
 "data": [
  ["CO[C@@H](C)c1ncccc1-c1nc2ccc3cn2c1CC(C)(C)COC(=O)[C@@H]1CCCN(N1)C(=O)[C@@H](NC(=O)[C@H](C(C)C)N(C)C(=O)[C@H]1CCN(C(=O)C#CC(C)(C)N(C)C)C1)Cc1cccc-3c1 [Example A311]", "K-Ras G13C (Homo sapiens (Human), UniProt P01116+P62937, G13C)", "< 5.00"],
  ["C=CC(=O)N1CC[C@H](C(=O)N(C)[C@H](C(=O)N[C@H]2Cc3cc(O)cc(c3)-c3ccc4c(c3)c(c(-c3ccc(OCC(=O)O)cc3)n4CC)CC(C)(C)COC(=O)[C@@H]3CCCN(N3)C2=O)C(C)C)C1 [Example A223]", "K-Ras G13C (Homo sapiens (Human), UniProt P01116+P62937, G13C)", "< 5.00"],
  ["C=C(OC)C(=O)N1CC(N(C)C(=O)N(C)[C@H](C(=O)N[C@H]2Cc3nc(cs3)-c3ccc4c(c3)c(c(-c3cccnc3[C@H](C)OC)n4CC)CC(C)(C)COC(=O)[C@@H]3CCCN(N3)C2=O)C(C)C)C1 (atropisomer, axis not shown) [Example A713]", "K-Ras G13C (Homo sapiens (Human), UniProt P01116+P62937, G13C)", "5.00 to 6.00"],
  ["C=CC(=O)N1CC[C@]2(CCN2C(=O)N(C)[C@H](C(=O)N[C@H]2Cc3nc(cs3)-c3ccc4c(c3)c(c(-c3cccnc3[C@H](C)OC)n4CC)CC(C)(C)COC(=O)[C@@H]3CCCN(N3)C2=O)C(C)C)C1 (atropisomer, axis not shown) [Example A662]", "K-Ras G13C (Homo sapiens (Human), UniProt P01116+P62937, G13C)", "6.00 to 7.00"],
  ["C=CC(=O)N1CC[C@H](C(=O)N(C)[C@H](C(=O)N[C@H]2Cc3cc(O)cc(c3)-c3ccc4c(c3)c(c(-c3cnccc3[C@H](C)OC)n4CC)CC(C)(C)COC(=O)[C@@H]3CCCN(N3)C2=O)C(C)C)C1 [Example A112]", "K-Ras G13C (Homo sapiens (Human), UniProt P01116+P62937, G13C)", "5.00 to 6.00"],
  ["C=CC(=O)N(C)[C@@H]1C[C@@H](C)N(C(=O)N(C)[C@H](C(=O)N[C@H]2Cc3nc(cs3)-c3ccc4c(c3)c(c(-c3cccnc3[C@H](C)OC)n4CC)CC(C)(C)COC(=O)[C@@H]3CCCN(N3)C2=O)C(C)C)C1 (atropisomer, axis not shown) [Example A634]", "K-Ras G13C (Homo sapiens (Human), UniProt P01116+P62937, G13C)", "6.00 to 7.00"],
  ["C=CC(=O)N1CCC2(C1)CN(C(=O)N(C)[C@H](C(=O)N[C@H]1Cc3nc(cs3)-c3ccc4c(c3)c(c(-c3cccnc3[C@H](C)OC)n4CC(F)(F)F)CC(C)(C)COC(=O)[C@@H]3CCCN(N3)C1=O)C(C)C)C2 [Example A603]", "K-Ras G13C (Homo sapiens (Human), UniProt P01116+P62937, G13C)", "7.00 to 8.00"],
  ["CCn1c(-c2cccnc2[C@H](C)OC)c2c3cc(ccc31)-c1csc(n1)C[C@H](NC(=O)[C@H](C(C)C)N(C)C(=O)N1CCCOC13CN(C(=O)C#CC(C)(C)N(C)C)C3)C(=O)N1CCC[C@H](N1)C(=O)OCC(C)(C)C2 (atropisomer, axis not shown) [Example A666]", "K-Ras G13C (Homo sapiens (Human), UniProt P01116+P62937, G13C)", "< 5.00"],
  ["C=CC(=O)N1CCC(C(=O)N(C)[C@H](C(=O)N[C@H]2Cc3cc(CF)cc(c3)-c3ccc4c(c3)c(c(-c3cccnc3[C@H](C)OC)n4CC(F)(F)F)CC(C)(C)COC(=O)[C@@H]3CCCN(N3)C2=O)C(C)C)C1 (stereo partly drawn) [Example A659]", "K-Ras G13C (Homo sapiens (Human), UniProt P01116+P62937, G13C)", "6.00 to 7.00"],
  ["C=CC(=O)N1CC[C@H](C(=O)N(C)[C@H](C(=O)N[C@H]2Cc3cc(sn3)-c3ccc4c(c3)c(c(-c3cccnc3[C@H](C)OC)n4CC)CC(C)(C)COC(=O)[C@@H]3CCCN(N3)C2=O)C(C)C)C1 (atropisomer, axis not shown) [Example A340]", "K-Ras G13C (Homo sapiens (Human), UniProt P01116+P62937, G13C)", "6.00 to 7.00"],
  ["C=CC(=O)N1CC[C@H](C(=O)N(C)c2ccccc2C(=O)N[C@H]2Cc3cc(O)cc(c3)-c3ccc4c(c3)c(c(-c3cnccc3COC)n4CC)CC(C)(C)COC(=O)[C@@H]3CCCN(N3)C2=O)C1 [Example A228]", "K-Ras G13C (Homo sapiens (Human), UniProt P01116+P62937, G13C)", "< 5.00"],
  ["C=CC(=O)N1CC[C@H](C(=O)N(C)[C@H](C(=O)N[C@H]2Cc3cc(CF)cc(c3)-c3ccc4c(c3)c(c(-c3cccnc3[C@H](C)OC)n4CC)CC(C)(C)COC(=O)[C@@H]3CCCN(N3)C2=O)C(C)C)C1 (atropisomer, axis not shown) [Example A503]", "K-Ras G13C (Homo sapiens (Human), UniProt P01116+P62937, G13C)", "6.00 to 7.00"],
  ["CC#CC(=O)N1CC[C@H](C(=O)N(C)[C@H](C(=O)N[C@H]2Cc3nc(cs3)-c3ccc4c(c3)c(c(-c3cccnc3[C@H](C)OC)n4CC)CC(C)(C)COC(=O)[C@@H]3CCCN(N3)C2=O)C2CCCC2)C1 (atropisomer, axis not shown) [Example A309]", "K-Ras G13C (Homo sapiens (Human), UniProt P01116+P62937, G13C)", "5.00 to 6.00"],
  ["C=CC(=O)N1C[C@H]2CN(C(=O)N(C)[C@H](C(=O)N[C@H]3Cc4nc(cs4)-c4ccc5c(c4)c(c(-c4cccnc4[C@H](C)OC)n5CC)CC(C)(C)COC(=O)[C@@H]4CCCN(N4)C3=O)C(C)C)[C@H]2C1 (atropisomer, axis not shown) [Example A686]", "K-Ras G13C (Homo sapiens (Human), UniProt P01116+P62937, G13C)", "6.00 to 7.00"],
  ["C=CC(=O)N1CCC2(CC1)OCN([C@H](C(=O)N[C@H]1Cc3cccc(c3)-c3ccc4c(c3)c(c(-c3cccnc3[C@H](C)OC)n4CC)CC(C)(C)COC(=O)[C@@H]3CCCN(N3)C1=O)C(C)C)C2=O (atropisomer, axis not shown) [Example A457]", "K-Ras G13C (Homo sapiens (Human), UniProt P01116+P62937, G13C)", "6.00 to 7.00"]
]}
